Documented S.I. Selectivity index IC50(hBuChE)/IC50(hAChE) across a set of compounds
# measured_target: hAChE (Homo sapiens, UniProt P22303)
# Sequence (P22303 32-614): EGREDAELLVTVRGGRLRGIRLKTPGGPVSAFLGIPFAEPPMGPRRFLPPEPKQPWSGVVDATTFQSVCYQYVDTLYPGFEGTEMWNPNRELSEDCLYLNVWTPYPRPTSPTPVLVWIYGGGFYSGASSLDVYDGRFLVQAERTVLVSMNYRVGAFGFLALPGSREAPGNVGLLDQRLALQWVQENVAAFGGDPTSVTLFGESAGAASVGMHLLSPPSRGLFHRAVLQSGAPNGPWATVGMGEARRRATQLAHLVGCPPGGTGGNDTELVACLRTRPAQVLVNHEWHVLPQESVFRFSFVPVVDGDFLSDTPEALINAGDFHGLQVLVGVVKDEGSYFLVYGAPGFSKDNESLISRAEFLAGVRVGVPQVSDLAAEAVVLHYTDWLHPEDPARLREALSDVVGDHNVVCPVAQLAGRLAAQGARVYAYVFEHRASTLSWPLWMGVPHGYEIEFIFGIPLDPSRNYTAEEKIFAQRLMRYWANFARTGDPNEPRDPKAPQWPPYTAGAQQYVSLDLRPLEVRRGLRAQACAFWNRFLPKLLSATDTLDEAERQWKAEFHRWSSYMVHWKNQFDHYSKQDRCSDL
# assay_text: biochemical
Give your answer as a number; write no unit.

Solved cases below.
C=CCn1c2cc(OCCCCCCOc3ccc4c5ccnc(C)c5n(CC=C)c4c3)ccc2c2ccnc(C)c21 = 1.9
Cc1nccc2c3ccc(OCCCCCOc4ccc5c6ccnc(C)c6n(C)c5c4)cc3n(C)c12 = 0.3

Please give the measured S.I. Selectivity index IC50(hBuChE)/IC50(hAChE) for this compound: `CCCn1c2cc(OCCCCCCOc3ccc4c5ccnc(C)c5n(CCC)c4c3)ccc2c2ccnc(C)c21`
12.1

====

# measured_target: hAChE (Homo sapiens, UniProt P22303)
# assay_text: biochemical
measurement_label: S.I. Selectivity index IC50(hBuChE)/IC50(hAChE)

# annotated cases, reported S.I. Selectivity index IC50(hBuChE)/IC50(hAChE) shown
CCn1c2cc(OCCCCCCCOc3ccc4c5ccnc(C)c5n(CC)c4c3)ccc2c2ccnc(C)c21 = >2.6
C=CCn1c2cc(OCCCCCOc3ccc4c5ccnc(C)c5n(CC=C)c4c3)ccc2c2ccnc(C)c21 = >3.4
CCCn1c2cc(OCCCCCCCCOc3ccc4c5ccnc(C)c5n(CCC)c4c3)ccc2c2ccnc(C)c21 = >6.3

Looking for the measured S.I. Selectivity index IC50(hBuChE)/IC50(hAChE) of `C=CCn1c2cc(OCCCCCCCCOc3ccc4c5ccnc(C)c5n(CC=C)c4c3)ccc2c2ccnc(C)c21` , can you help?
>1.0
